- Test summary: growth suppression of yeast trafficking mutant, preliminary HTS, modulators of trafficking downstream of Golgi apparatus project, 1536-format plate, OD 615 nm (AID 637)
- Test conditions: yeast transport mutant growth, absorbance 615 nm, 18 h; stronger effect = higher value
The source made the active and inactive calls. Rule as the data show it: active = inhibition above about 30%; inactive = the rest.
// reported inhibition for each item listed

Some solved cases for reference:
>  <Mol smiles>
Cc1ccc2c(C)nc(Nc3nc(CSc4nnnn4-c4ccccc4)cc(=O)[nH]3)nc2c1

>  <inhibition>
1.31% (inactive)

$$$$
>  <Mol smiles>
c1ccc(CCc2nn3c(Cn4cnc5ccccc54)nnc3s2)cc1

>  <inhibition>
11.4% (inactive)

$$$$

Then this compound:
Request: Dear colleague, please send me the reported inhibition for `COC(=O)CN(c1ccc(F)cc1)S(=O)(=O)c1ccccc1` when you can.
Result: -3.93% (inactive)

* * *

Documented viability across a set of compounds
- Test summary: HUVEC growth inhibition – cell-based, human, primary screen (AID 575);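 also: 100% = median of untreated cell wells with 0.1% DMSO on each plate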
- Test conditions: HUVEC proliferation, CellTiter-Glo luminescence, 72 h; at 10 µM; stronger effect = lower value
Output spec: scalar in %, unitless text.

Please review the following examples before continuing.
>  <Compound>
CCCCn1cnc2c1c(=O)n(C)c(=O)n2C

>  <Unit of measurement>
%

>  <viability>
100

$$$$
>  <Compound>
CCn1cc(C(=O)N2CCN(C(=O)c3ccco3)CC2)c2cc(OC)c(OC)cc2c1=O

>  <Unit of measurement>
%

>  <viability>
91.3

$$$$
>  <Compound>
COc1cc(CO)cc(-c2cc(CO)cc(OC)c2OC)c1OC

>  <Unit of measurement>
%

>  <viability>
95.8

$$$$
>  <Compound>
COc1ccc(NC(=O)C23CCC(C)(C(=O)C2)C3(C)C)cc1 (configuration not stated)

>  <Unit of measurement>
%

>  <viability>
105

$$$$
>  <Compound>
O=C(CSc1nnc(COc2ccc(Cl)cc2)o1)OC1CCCCC1

>  <Unit of measurement>
%

>  <viability>
95.5

$$$$

Request: Please list viability recorded for the compound `Cc1c(NC(=O)c2coc(=O)c(Br)c2)c(=O)n(-c2ccccc2)n1C`
Result: 72.9

Request: Give the reported value of viability for this record: `O=C(Nc1nc(-c2ccc(S(=O)(=O)N3CCCCCC3)cc2)cs1)c1cccs1`
Result: 73.6

* * *

- System name: Receptor tyrosine-protein kinase erbB-2 (Homo sapiens) (UniProt P04626)
- Sequence (P04626 whole entry, looked up): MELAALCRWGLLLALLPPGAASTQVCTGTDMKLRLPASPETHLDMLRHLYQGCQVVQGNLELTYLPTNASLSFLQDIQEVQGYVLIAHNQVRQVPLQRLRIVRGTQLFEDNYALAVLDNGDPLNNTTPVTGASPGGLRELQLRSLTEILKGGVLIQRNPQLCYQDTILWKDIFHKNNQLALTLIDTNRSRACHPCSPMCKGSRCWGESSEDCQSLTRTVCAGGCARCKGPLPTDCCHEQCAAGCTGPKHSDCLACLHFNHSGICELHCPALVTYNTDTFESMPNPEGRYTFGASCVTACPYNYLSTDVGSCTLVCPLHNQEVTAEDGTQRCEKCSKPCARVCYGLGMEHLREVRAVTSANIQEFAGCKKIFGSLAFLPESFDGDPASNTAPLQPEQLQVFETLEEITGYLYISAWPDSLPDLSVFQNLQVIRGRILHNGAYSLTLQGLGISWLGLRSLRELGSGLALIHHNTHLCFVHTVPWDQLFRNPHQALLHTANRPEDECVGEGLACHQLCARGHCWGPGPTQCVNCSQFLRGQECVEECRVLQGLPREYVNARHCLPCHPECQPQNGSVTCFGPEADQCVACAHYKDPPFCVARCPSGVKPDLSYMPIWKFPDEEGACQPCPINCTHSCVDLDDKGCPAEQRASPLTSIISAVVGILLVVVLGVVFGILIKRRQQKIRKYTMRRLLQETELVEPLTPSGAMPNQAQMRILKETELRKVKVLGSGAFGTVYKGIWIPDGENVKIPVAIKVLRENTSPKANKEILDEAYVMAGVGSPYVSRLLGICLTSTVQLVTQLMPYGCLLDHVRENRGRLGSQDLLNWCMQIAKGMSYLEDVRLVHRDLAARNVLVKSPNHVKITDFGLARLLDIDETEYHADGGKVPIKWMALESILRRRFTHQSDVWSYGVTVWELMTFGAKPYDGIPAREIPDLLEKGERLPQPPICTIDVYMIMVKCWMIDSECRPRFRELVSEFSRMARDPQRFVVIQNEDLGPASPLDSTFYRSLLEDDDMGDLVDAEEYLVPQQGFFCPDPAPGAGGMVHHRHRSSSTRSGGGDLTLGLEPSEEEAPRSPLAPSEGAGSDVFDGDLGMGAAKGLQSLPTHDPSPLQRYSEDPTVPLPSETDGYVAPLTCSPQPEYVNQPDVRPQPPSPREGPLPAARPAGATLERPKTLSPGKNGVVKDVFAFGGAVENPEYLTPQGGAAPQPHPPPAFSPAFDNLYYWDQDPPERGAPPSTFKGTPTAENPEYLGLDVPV
- Test summary: reducers of endogenous Her2 protein level, primary screen, SKBR3 breast tumor cells, AlphaScreen, ATP viability (AID 461);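 also: lower value means less Her2 protein in the cells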
- Test conditions: 18-24 h, at 10 µM
Calls of active or inactive are those of the source.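 Rule for the calls: active = Her2 level under about 52% in both replicate screens, with viability over 70% of control (limit read from the data); inconclusive = Her2 under the limit in one screen only, or viability under 70%; inactive = Her2 level above the set limit.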
// classify into active, inactive

Request: Call for entry CC1Cc2ccccc2N1C(=O)c1cccnc1 (stereo not given) :
Result: inactive

Request: Hello, I am checking results. What call was entered for CC(=O)C1=C(C)OC(N)=C(C#N)C1c1ccncc1 (stereo not given) ?
Result: inactive

Request: Assay outcome for `CCOC(=O)/C=C(\C)Sc1cc(=O)oc2ccccc12` : what was it?
Result: active

Request: Hi team, can someone confirm the assay call for `COc1ccc(-c2c(=O)n(OCc3ccccn3)c3ccccc3[n+]2[O-])cc1OC` ?
Result: inactive

Request: Name the outcome recorded for CCC(C)NC(=O)CSC1=Nc2ccccc2C2=NC(CC(=O)NCc3ccccc3)C(=O)N12 (stereo not given) in the assay.
Result: inactive

Request: What is the recorded call for this molecule in the test? `COCCNC(=O)CCCCCN1C(=O)CCC1=O`
Result: inactive

Request: // outcome(item) with item = `CCOC(=O)COc1ccc(S(=O)(=O)N2CCc3ccccc3C2)cc1`
Result: inactive

Request: Query: recorded result category for `Cc1cc(NCCN2CCOCC2)n2nc(C)c(-c3ccccc3)c2n1` in this test
Result: inactive

Request: Assay result, entry `CN1CCN(c2ncnc3c2cnn3-c2ccc(Cl)cc2)CC1` — outcome?
Result: inactive

Request: How did this test come out for `CCC(=O)Nc1cc(C)c(NC(=O)C23CC4CC(CC(C4)C2)C3)cn1` ?
Result: inactive

Request: Name the outcome recorded for `Cn1cnnc1Sc1nc2c(c(=O)n(C)c(=O)n2C)n1C` in the assay.
Result: inactive

Request: Field: outcome | Entry: `Cn1c(=N)c(S(=O)(=O)c2ccccc2)cc2c(=O)n3ccccc3nc21`
Result: inactive

Request: So what was the verdict on `Cn1c(=O)[nH]c(=O)c2c1nc(N1CCCCCC1)n2CCCSc1nc2ccccc2o1` in this test?
Result: inactive

Request: Hi, sorry to bother you, what did the test record for CCn1c(CSc2ncccn2)nnc1SCC(=O)N1c2ccccc2CC1C (stereo not given) ?
Result: inactive

Request: State the result this test recorded for `CCCn1c(SCC(=O)Nc2cc(C)on2)nc2c1c(=O)n(C)c(=O)n2C` .
Result: inactive

Request: In this assay, the call recorded for `CCCc1cc(-n2ccnc2)n2c(nc3ccccc32)c1C#N` was what?
Result: inactive
